Source listed as ChEMBL document CHEMBL3507680.

experiment: Human HepG2 cell viability assay in 384 well format; format: toxicity, cell-based; parameters: dose 125 nL, time 70.5 hour; concentration not given beside the values; details: HepG2 cells, read-out: Inhibition
The following compounds are shown together with reported cytotoxicity at 70.5 h values.
Kindly provide the numeric value in % only, without the unit symbol.

Solved cases below.
> print(dat)
                                   compound  unittag  recordedvalue
1  COc1ccccc1C1(O)CCCN(C(=O)c2ccnn2C(C)C)C1 (centres undefined)        %           -1.5
2  Cc1ccnc(CC(C)N(C)Cc2ccc3c(c2)CCO3)c1 (centres undefined)        %          -5.48
3  CNC(=O)CC1CCN(C(=O)NCC2(c3ccccc3F)CC2)CC1        %          -3.18
4  C[C@@H]1C(=O)NC[C@H]2CN(Cc3ccsc3)C[C@H]21        %           -2.8
5  CCC1CCCCN1CCc1ccncc1 (centres undefined)        %           29.9
6  O=C(CCO)N1C[C@H]2CC[C@@H]1CN(C1Cc3ccccc3C1)C2        %          -9.88
7      Cc1ccc(C(=O)N2CCCN(C)c3ccc(F)cc32)o1        %          -17.9
8     NC(=O)c1cccc(CN2CCc3c(ncn3C3CC3)C2)c1        %           23.7

Now for a further compound.
Requested field: cytotoxicity at 70.5 h. Item: Cc1nnc(C2CCN(C(=O)c3cnc4ccccc4n3)CC2)s1
-2.76

====

assay: Human HepG2 cell viability assay in 384 well format; assay type: toxicity, cell-based; set-up: dose 125 nL, time 70.5 hour; concentration not given beside the values; settings: HepG2 cells, read-out: Inhibition
The following compounds are shown together with reported cytotoxicity at 70.5 h values.
Kindly provide the numeric value in % only, without the unit symbol.

Solved cases below.
> print(dat)
                                   compound       parametermeasured  recordedvalue
1  COc1ccc(C)cc1CC(=O)NC(CC(=O)O)c1ccc(F)cc1 (stereo unspecified)  cytotoxicity at 70.5 h          -18.4
2     Cc1cnn(CCNCC(=O)N2CCN(c3ccccc3)CC2)c1  cytotoxicity at 70.5 h           21.4
3        COc1ccccc1CCNC(=O)NCC(=O)Nc1cccnc1  cytotoxicity at 70.5 h         -0.968
4            Cc1ccccc1-n1c(C)cc(=O)[nH]c1=O  cytotoxicity at 70.5 h           26.3
5  CCS(=O)(=O)N1Cc2ncn(CC3CC3)c2C(COC)C1 (stereo unspecified)  cytotoxicity at 70.5 h         -0.679

Now for a further compound.
Requested field: cytotoxicity at 70.5 h. Item: CSc1ccccc1CN1C[C@H]2C(=O)N(CC3CC3)C[C@@]2(C(=O)O)C1
-0.998

====

The following molecules are shown together with reported cytotoxicity at 70.5 h values.
assay: Human HepG2 cell viability assay in 384 well format; assay type: toxicity, cell-based; design: dose 125 nL, time 70.5 hour; concentration not given beside the values; details: HepG2 cells, read-out: Inhibition
Kindly provide the numeric value in % only, without the unit symbol.

Requested field: cytotoxicity at 70.5 h. Item: CCS(=O)(=O)CC(=O)N1CCCC1c1noc(C2CC2)n1 (stereo unspecified)
-8.04

Consider next the molecule O=C(Cc1ccccc1F)N1CCN(Cc2noc(C3CC3)n2)CC1 in the same way.
10.8

Consider next the molecule Cc1cc(O)c(OCC(=O)/N=c2/[nH]c3c(s2)CCC3)cn1 in the same way.
-14.7

Consider next the molecule CCc1nc(CNc2cc(Cl)ccc2OCC2CCCO2)no1 (stereo unspecified) in the same way.
-8.62

Consider next the molecule CC(=O)N1CCN(C(=O)Nc2cnc3c(cnn3C(C)C)c2)CC1 in the same way.
14.8

Consider next the molecule COc1cc(CN2CCCC23CCN(c2ccccn2)CC3)ccc1F in the same way.
-0.0865
